# tgt: AR (Homo sapiens)
# Construct: endogenous in cells; host or cells: VCaP cells
# Sequence (P10275 whole entry): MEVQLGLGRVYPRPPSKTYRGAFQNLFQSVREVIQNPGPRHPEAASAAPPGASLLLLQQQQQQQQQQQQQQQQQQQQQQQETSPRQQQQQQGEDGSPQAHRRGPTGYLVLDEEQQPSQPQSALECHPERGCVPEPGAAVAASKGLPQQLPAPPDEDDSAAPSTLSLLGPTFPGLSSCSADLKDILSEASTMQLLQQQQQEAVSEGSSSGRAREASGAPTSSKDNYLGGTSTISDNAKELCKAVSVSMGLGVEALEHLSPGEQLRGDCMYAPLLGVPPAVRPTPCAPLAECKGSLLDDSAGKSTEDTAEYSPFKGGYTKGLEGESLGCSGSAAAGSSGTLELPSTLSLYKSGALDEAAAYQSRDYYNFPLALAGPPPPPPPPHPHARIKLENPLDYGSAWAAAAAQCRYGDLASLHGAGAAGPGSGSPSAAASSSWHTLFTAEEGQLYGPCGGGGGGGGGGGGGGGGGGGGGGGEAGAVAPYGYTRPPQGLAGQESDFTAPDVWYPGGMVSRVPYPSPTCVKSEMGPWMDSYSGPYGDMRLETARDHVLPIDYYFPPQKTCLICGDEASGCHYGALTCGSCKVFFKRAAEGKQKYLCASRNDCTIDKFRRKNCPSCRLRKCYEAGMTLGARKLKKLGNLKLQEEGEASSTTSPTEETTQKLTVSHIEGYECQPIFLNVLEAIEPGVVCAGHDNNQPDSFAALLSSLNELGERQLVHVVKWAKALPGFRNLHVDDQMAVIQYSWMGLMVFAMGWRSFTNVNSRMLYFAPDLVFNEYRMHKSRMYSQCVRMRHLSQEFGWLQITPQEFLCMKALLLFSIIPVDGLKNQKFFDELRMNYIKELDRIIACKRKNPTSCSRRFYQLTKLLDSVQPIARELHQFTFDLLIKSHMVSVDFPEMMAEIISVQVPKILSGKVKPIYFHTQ
# measurementProtocol: VCAP AR Degradation Assay
# Type: cell-based
# experimentalConditions: class symbols *, **
Structures can show the parent of a compound that is named as a salt.
propertyName: Y (AR degradation efficiency, % of DMSO control)

* CCc1cc(N2C(=S)N(c3ccc(C#N)c(C(F)(F)F)c3)C(=O)C2(C)C)ccc1OC[C@H](C)N1C[C@@H](C)N(CC(=O)Nc2cccc(NC3CCC(=O)NC3=O)c2)[C@@H](C)C1 (single isomer, unassigned) | ** (25%<Y<=35%)
* C[C@H](C(=O)Nc1cccc(NC2CCC(=O)NC2=O)c1)N1CCN(CCOc2ccc(N3C(=S)N(c4ccc(C#N)c(C(F)(F)F)c4)C(=O)C3(C)C)cc2Cl)CC1 (some centres unmarked) [Example 25, hydrochloride] | *** (35%<Y<50%)
* CCc1cc(N2C(=S)N(c3ccc(C#N)c(C(F)(F)F)c3)C(=O)C2(C)C)ccc1CCCN1CCN(CC(=O)Nc2cc(Cl)cc(NC3CCC(=O)NC3=O)c2)CC1 (centres unmarked) | * (0<Y<=25%)
* CC1(C)C(=O)N(c2cnc(C#N)c(C(F)(F)F)c2)C(=S)N1c1ccc(OCCN2CCN(CC(=O)Nc3cc(NC4CCC(=O)NC4=O)ccc3F)CC2)cc1 (centres unmarked) | ** (25%<Y<=35%)
* CCc1cc(N2C(=S)N(c3ccc(C#N)c(C(F)(F)F)c3)C(=O)C2(C)C)ccc1OCCN1CCN(CC(=O)Nc2cccc(NC3CCC(=O)NC3=O)c2)[C@H](C)C1 (some centres unmarked) | * (0<Y<=25%)
* CC1(C)C(=O)N(c2ccc(C#N)c(C(F)(F)F)c2)C(=S)N1c1ccc(OCCN2CCN(CC(=O)Nc3cc(Cl)cc(NC4CCC(=O)NC4=O)c3)CC2)c(C2CC2)c1 (centres unmarked) [Example 30, hydrochloride] | * (0<Y<=25%)

Ask | Query: Y (AR degradation efficiency, % of DMSO control); subject: C[C@@H]1CN(CCOc2ccc(N3C(=S)N(c4cnc(C#N)c(C(F)(F)F)c4)C(=O)C34CCC4)cc2C2CC2)C[C@H](C)N1CC(=O)Nc1cc(Cl)cc(NC2CCC(=O)NC2=O)c1 (some centres unmarked)
Reply | * (0<Y<=25%)

Ask | # lookup: Y (AR degradation efficiency, % of DMSO control) of CCc1cc(N2C(=S)N(c3ccc(C#N)c(C(F)(F)F)c3)C(=O)C2(C)C)ccc1OCCN1CCN(CC(=O)Nc2cccc(NC3CCC(=O)NC3=O)c2)C[C@@H]1CO (some centres unmarked)
Reply | * (0<Y<=25%)

Ask | Form field: reported Y (AR degradation efficiency, % of DMSO control) of C[C@@H]1CN(CC(=O)Nc2cccc(NC3CCC(=O)NC3=O)c2)[C@H](C)CN1CCOc1ccc(N2C(=S)N(c3ccc(C#N)c(C(F)(F)F)c3)C(=O)C2(C)C)cc1C1CC1 (some centres unmarked)
Reply | * (0<Y<=25%)

Ask | Give its Y (AR degradation efficiency, % of DMSO control) value. Item: CCc1cc(N2C(=S)N(c3cnc(C#N)c(C(F)(F)F)c3)C(=O)C2(C)C)ccc1OCCN1C[C@H]2C[C@@H]1CN2CC(=O)Nc1cc(Cl)cc(NC2CCC(=O)NC2=O)c1 (some centres unmarked)
Reply | ** (25%<Y<=35%)

Ask | // query Y (AR degradation efficiency, % of DMSO control) value for entry CC(C)c1cc(N2C(=S)N(c3cnc(C#N)c(C(F)(F)F)c3)C(=O)C23CCC3)ccc1OCCN1C[C@@H](C)N(CC(=O)Nc2cc(NC3CCC(=O)NC3=O)ccc2F)[C@@H](C)C1 (some centres unmarked)
Reply | ** (25%<Y<=35%)

Ask | Need Y (AR degradation efficiency, % of DMSO control) of CC1(C)C(=O)N(c2cnc(C#N)c(C(F)(F)F)c2)C(=S)N1c1ccc(OCCN2CCN(CC(=O)Nc3cccc(NC4CCC(=O)NC4=O)c3)CC2)cc1 (centres unmarked) [Example 2, hydrochloride] , thanks.
Reply | ** (25%<Y<=35%)

Ask | What Y (AR degradation efficiency, % of DMSO control) value was documented for this compound, C[C@@H]1CN(CCOc2ccc(N3C(=S)N(c4ccc(C#N)c(C(F)(F)F)c4)C(=O)C3(C)C)cc2CC(F)F)CCN1CC(=O)Nc1cc(NC2CCC(=O)NC2=O)ccc1F (some centres unmarked) ?
Reply | * (0<Y<=25%)

Ask | What value of Y (AR degradation efficiency, % of DMSO control) has been reported for the following compound? C[C@@H]1CN(CCOc2ccc(N3C(=S)N(c4ccc(C#N)c(C(F)(F)F)c4)C(=O)C3(C)C)cc2C2CC2)C[C@H](C)N1CC(=O)Nc1cccc(N[C@H]2CCC(=O)NC2=O)c1
Reply | * (0<Y<=25%)

Ask | Param item = CCc1cc(N2C(=S)N(c3ccc(C#N)c(C(F)(F)F)c3)C(=O)C2(C)C)ccc1OCCN1CCN(CC(=O)Nc2cc(NC3CCC(=O)NC3=O)ccc2Cl)CC1 (centres unmarked) [Example 41, hydrochloride] ; retrieve measured Y (AR degradation efficiency, % of DMSO control).
Reply | * (0<Y<=25%)

Ask | Any idea what Y (AR degradation efficiency, % of DMSO control) was measured for C[C@@H]1CN(CCOc2ccc(N3C(=S)N(c4ccc(C#N)c(C(F)(F)F)c4)C(=O)C3(C)C)cc2C2CC2)C[C@H](C)N1CC(=O)Nc1cccc(N[C@@H]2CCC(=O)NC2=O)c1 ?
Reply | * (0<Y<=25%)

Ask | # lookup: Y (AR degradation efficiency, % of DMSO control) of CCc1cc(N2C(=S)N(c3ccc(C#N)c(C(F)(F)F)c3)C(=O)C2(C)C)ccc1OCCN1C[C@H](C)N(CC(=O)Nc2cc(Cl)cc(NC3CCC(=O)NC3=O)c2)[C@@H](C)C1 (some centres unmarked)
Reply | * (0<Y<=25%)

Ask | Value lookup for Y (AR degradation efficiency, % of DMSO control); key = CCc1cc(N2C(=S)N(c3cnc(C#N)c(C(F)(F)F)c3)C(=O)C2(C)C)ccc1OCCN1CCN([C@H](C)C(=O)Nc2cc(Cl)cc(NC3CCC(=O)NC3=O)c2)CC1 (some centres unmarked) [Example 191]
Reply | * (0<Y<=25%)

Ask | Recorded Y (AR degradation efficiency, % of DMSO control) of CC(C)c1cc(N2C(=S)N(c3ccc(C#N)c(C(F)(F)F)c3)C(=O)C2(C)C)cnc1OCCN1C[C@@H](C)N(CC(=O)Nc2cccc(NC3CCC(=O)NC3=O)c2)C[C@H]1C (some centres unmarked) , please.
Reply | *** (35%<Y<50%)

Ask | # input compound: CCc1cc(N2C(=S)N(c3ccc(C#N)c(C(F)(F)F)c3)C(=O)C2(C)C)cnc1OCCN1CCN(CC(=O)Nc2cc(Cl)cc(NC3CCC(=O)NC3=O)c2)CC1 (centres unmarked) ; wanted: its Y (AR degradation efficiency, % of DMSO control)
Reply | * (0<Y<=25%)

The values you see were collected from patent US12404241B2.
